src = PubChem BioAssay AID602229

measuredOn: Photoreceptor-specific nuclear receptor (Homo sapiens) (UniProt Q9Y5X4)
Sequence (Q9Y5X4 whole entry, looked up, the tested form may be a part): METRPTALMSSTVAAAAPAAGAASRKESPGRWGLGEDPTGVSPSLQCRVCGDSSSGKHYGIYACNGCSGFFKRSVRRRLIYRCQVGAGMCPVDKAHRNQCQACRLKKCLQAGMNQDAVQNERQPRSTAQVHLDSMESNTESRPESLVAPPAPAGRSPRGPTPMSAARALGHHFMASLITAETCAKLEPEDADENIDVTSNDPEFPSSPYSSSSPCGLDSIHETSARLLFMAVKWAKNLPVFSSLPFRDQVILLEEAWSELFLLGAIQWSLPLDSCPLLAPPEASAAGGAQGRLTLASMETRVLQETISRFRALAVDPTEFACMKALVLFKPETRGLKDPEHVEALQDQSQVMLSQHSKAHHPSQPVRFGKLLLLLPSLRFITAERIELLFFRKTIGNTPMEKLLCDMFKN
method: NCOR release from NR2E3 in cells – cell-based, luminescence, CHO-S, Gal4-NCOR/VP16-NR2E3, primary screen (AID 602229);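 also: 0% = DMSO with NR2E3 transfected cells and 100% = cells lacking NR2E3 construct; higher means lower luciferase signal from less NR2E3 corepressor binding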
conditionParameters: CHO-S Gal4-NCOR/VP16-NR2E3 two-hybrid, luciferase; at 3.98 µM
Hit rate of the full screen: of about 360,000 compounds, about 1,300 (0.36%) were called active.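 The calls were made as follows: active = inhibition above the mean of all tested compounds plus 3 SD (cut at about 70% in these data); inactive = the rest.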 The sample as a whole holds a higher share of actives than the screen did.
Outcomes: T = active, F = inactive

>  <compound>
N#C[C@]1(S(=O)(=O)c2ccccc2)C[C@@H]2ON=C(c3cccc(Br)c3)[C@@H]2C1

>  <group>
T

$$$$
>  <compound>
NS(=O)(=O)c1cc(C(=O)NCCOc2ccccc2)c(Cl)cc1Cl

>  <group>
F

$$$$
>  <compound>
CC(C)C1Nc2c(C(=O)O)cccc2C(Nc2ccccc2C(=O)O)C1(C)C (stereo unspecified)

>  <group>
F

$$$$
>  <compound>
COc1cc(CCC(=O)Nc2ccncc2Cl)cc(OC)c1OC

>  <group>
F

$$$$
>  <compound>
Cc1cc(C)c(S(=O)(=O)c2cc(F)ccc2C)c(=O)[nH]1

>  <group>
F

$$$$
>  <compound>
Cc1csc(NC(=O)CSc2ccc(-c3ccc(F)cc3)nn2)n1

>  <group>
F

$$$$

###

measuredOn: Photoreceptor-specific nuclear receptor (Homo sapiens)
method: NCOR release from NR2E3 in cells – cell-based, luminescence, CHO-S, Gal4-NCOR/VP16-NR2E3, primary screen (AID 602229)
conditionParameters: CHO-S Gal4-NCOR/VP16-NR2E3 two-hybrid, luciferase; at 3.98 µM; hits give high values
Out of some 360,000 compounds screened, about 1,300 (0.36%) were called active. Only a selection was taken, and actives are over-represented in it overall.
Overview of recorded inhibition of corepressor binding for various compounds
propertyLabel: inhibition of corepressor binding

>  <compound>
O=C(COc1ncnc2ccccc12)NC(=O)NCc1ccccc1

>  <result>
9.2% (inactive)

$$$$
>  <compound>
O=S(=O)(Nc1ccc(-c2ccc(N3CCOCC3)nn2)cc1)c1cc(Cl)ccc1Cl

>  <result>
-41.5% (inactive)

$$$$
>  <compound>
CC1(C(=O)NS(=O)(=O)c2ccc(Cl)cc2)CCN1C(=O)CC1CCCC1 (configuration not stated)

>  <result>
9.74% (inactive)

$$$$
>  <compound>
CCn1cc(C(=O)N[C@@H](C)C(=O)NCCO)c(=O)c2cc3c(cc21)OCO3

>  <result>
-12.3% (inactive)

$$$$
>  <compound>
Cc1ccc(NC(=S)N(CCN(C)C)Cc2cccs2)cc1C

>  <result>
-15.7% (inactive)

$$$$
>  <compound>
CSc1ncccc1C(=O)Nc1nc2ccc(F)cc2s1

>  <result>
47.5% (inactive)

$$$$
>  <compound>
COc1ccc(CNc2ncnc3ccccc23)cc1

>  <result>
96.1% (active)

$$$$

###

measuredOn: Photoreceptor-specific nuclear receptor (Homo sapiens)
method: NCOR release from NR2E3 in cells – cell-based, luminescence, CHO-S, Gal4-NCOR/VP16-NR2E3, primary screen (AID 602229);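 also: 0% = DMSO with NR2E3 transfected cells and 100% = cells lacking NR2E3 construct; higher means lower luciferase signal from less NR2E3 corepressor binding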
conditionParameters: CHO-S Gal4-NCOR/VP16-NR2E3 two-hybrid, luciferase; at 3.98 µM; hits give high values
Hit rate of the full screen: of about 360,000 compounds, about 1,300 (0.36%) were called active. Shown is part of a subset that was picked to be rich in actives.

>  <molecule>
Cc1ccsc1C(=O)OCC(=O)c1cc(C)n(CC2CCCO2)c1C (configuration not stated)

>  <unitAbbreviation>
%

>  <inhibition of corepressor binding>
89.5

$$$$
>  <molecule>
Cc1ccc([N+](=O)[O-])cc1S(=O)(=O)N1CCCN(C)CC1

>  <unitAbbreviation>
%

>  <inhibition of corepressor binding>
-11.3

$$$$
>  <molecule>
Cc1ccc(S(=O)(=O)N2CCN(Cc3cccc(C)c3O)CC2)cc1

>  <unitAbbreviation>
%

>  <inhibition of corepressor binding>
4.5

$$$$
>  <molecule>
CCCOc1ccc(CN(CCO)CCO)cc1C(=O)OC

>  <unitAbbreviation>
%

>  <inhibition of corepressor binding>
5.92

$$$$
>  <molecule>
Nc1[nH]c(C(=O)c2ccccc2)c(-c2ccncc2)c1C(=O)NCc1cccc2ccccc12

>  <unitAbbreviation>
%

>  <inhibition of corepressor binding>
3.22

$$$$
>  <molecule>
CCCn1c(C)cc(C(=O)COC(=O)c2c(C)nn(-c3ccccc3)c2C)c1C

>  <unitAbbreviation>
%

>  <inhibition of corepressor binding>
17.1

$$$$
>  <molecule>
O=C(CSc1ccccn1)N1CCN(S(=O)(=O)c2ccc(Cl)cc2)CC1

>  <unitAbbreviation>
%

>  <inhibition of corepressor binding>
-21.8

$$$$

###

measuredOn: Photoreceptor-specific nuclear receptor (Homo sapiens)
method: NCOR release from NR2E3 in cells – cell-based, luminescence, CHO-S, Gal4-NCOR/VP16-NR2E3, primary screen (AID 602229);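 also: 0% = DMSO with NR2E3 transfected cells and 100% = cells lacking NR2E3 construct; higher means lower luciferase signal from less NR2E3 corepressor binding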
conditionParameters: CHO-S Gal4-NCOR/VP16-NR2E3 two-hybrid, luciferase; at 3.98 µM; hits give high values
Hit rate of the full screen: of about 360,000 compounds, about 1,300 (0.36%) were called active. This is one part of a sample in which actives are shown more often than they occur.
propertyLabel: inhibition of corepressor binding (%)

>  <smilesRepr>
CN(CC(=O)NCCN1CCOCC1)S(=O)(=O)c1ccc(F)cc1

>  <unitAbbreviation>
%

>  <measuredNumber>
-42.2

$$$$
>  <smilesRepr>
O=C(Nc1ccccn1)C1CCN(S(=O)(=O)c2ccc3c(c2)OCCO3)CC1

>  <unitAbbreviation>
%

>  <measuredNumber>
-51.8

$$$$
>  <smilesRepr>
CCCCC[C@@H]1C=C(C(=O)O)[C@H](c2ccc(C#N)cc2)N1S(=O)(=O)c1ccc(C)cc1

>  <unitAbbreviation>
%

>  <measuredNumber>
-8.3

$$$$

###

Overview of recorded inhibition of corepressor binding for various molecules
measuredOn: Photoreceptor-specific nuclear receptor (Homo sapiens)
method: NCOR release from NR2E3 in cells – cell-based, luminescence, CHO-S, Gal4-NCOR/VP16-NR2E3, primary screen (AID 602229);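 also: 0% = DMSO with NR2E3 transfected cells and 100% = cells lacking NR2E3 construct; higher means lower luciferase signal from less NR2E3 corepressor binding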
conditionParameters: CHO-S Gal4-NCOR/VP16-NR2E3 two-hybrid, luciferase; at 3.98 µM; hits give high values
About 1,300 (0.36%) of roughly 360,000 compounds were called active. Many of the other results were omitted from the sample, so actives are more common in it than they were.
propertyLabel: inhibition of corepressor binding

>  <molecule>
CCCC(=O)Nc1nnc(CC(=O)OCC)s1

>  <result>
12.6% (inactive)

$$$$
>  <molecule>
CCN(CC)C(=O)C1=C(C)N(Cc2ccc(C(C)(C)C)cc2)C(=O)C(CC(=O)NCc2cccc3ccccc23)C1 (stereo not drawn)

>  <result>
20.9% (inactive)

$$$$
>  <molecule>
COC(=O)[C@]1(S(=O)(=O)c2ccccc2)C[C@@H]2ON=C(c3ccc(OC)cc3)[C@@H]2C1

>  <result>
-7.87% (inactive)

$$$$
>  <molecule>
O=C(Nn1cnc2ccccc2c1=O)c1ccc([N+](=O)[O-])cc1Cl

>  <result>
-16.8% (inactive)

$$$$
>  <molecule>
CC(=O)c1ccc(NC(=O)C2CCCN2S(=O)(=O)c2cccs2)cc1 (stereo not drawn)

>  <result>
-7.87% (inactive)

$$$$
>  <molecule>
CN(C)c1ccc(NC(=O)CSc2n[nH]c(-c3ccco3)n2)cc1

>  <result>
-21.3% (inactive)

$$$$
>  <molecule>
COc1ccc2c(c1)c(=Cc1ccc(N(C)C)cc1)c1cc(-c3ccccc3)[n+](C)n12

>  <result>
82.2% (active)

$$$$
>  <molecule>
COC(=O)c1sccc1NS(=O)(=O)c1ccc(F)cc1F

>  <result>
-9.53% (inactive)

$$$$
>  <molecule>
Cc1ccc(NS(=O)(=O)c2ccc(-c3coc(C)n3)cc2)c(C)c1

>  <result>
73.5% (active)

$$$$
>  <molecule>
O=C1C=C(c2cccc(Cl)c2)C[C@@H](c2ccc(F)cc2)C1

>  <result>
-24.8% (inactive)

$$$$
>  <molecule>
O=C1C=C(c2ccnc3cc(Cl)ccc23)C[C@@H](c2ccc3c(c2)OCO3)C1

>  <result>
85.8% (active)

$$$$
>  <molecule>
Cc1c(NC(=S)NCc2ccc(F)cc2)cccc1[N+](=O)[O-]

>  <result>
-17.5% (inactive)

$$$$
>  <molecule>
O=C1C=C(c2cc(C(F)(F)F)cc(C(F)(F)F)c2)C[C@@H](c2ccc3c(c2)OCO3)C1

>  <result>
-2.34% (inactive)

$$$$
>  <molecule>
C=C(Br)CN1CCN(CC(=C)Br)CC1

>  <result>
-7.79% (inactive)

$$$$
>  <molecule>
COC(=O)c1sccc1NC(=O)CSc1ccccc1NS(=O)(=O)c1cc(Cl)ccc1Cl

>  <result>
89.8% (active)

$$$$
>  <molecule>
C=CCn1c(C)cc(C2=NNC(=NCC)SC2)c1C

>  <result>
89.3% (active)

$$$$
>  <molecule>
COC(=O)c1cc(S(=O)(=O)NCC2CCN(Cc3ccc(Cl)cc3)CC2)cn1C

>  <result>
16.9% (inactive)

$$$$
>  <molecule>
Cc1ccc(S(=O)(=O)NC(C)C(=O)NCc2ccc(Cl)cc2)cc1 (stereo not drawn)

>  <result>
-5.53% (inactive)

$$$$
